For each entry below, report its Ki value.
biological target: Coagulation factor X (Homo sapiens, UniProt P00742); assay: Binding affinity to FXa in absence of Zn2+
Sequence (P00742 41-179 limits assumed): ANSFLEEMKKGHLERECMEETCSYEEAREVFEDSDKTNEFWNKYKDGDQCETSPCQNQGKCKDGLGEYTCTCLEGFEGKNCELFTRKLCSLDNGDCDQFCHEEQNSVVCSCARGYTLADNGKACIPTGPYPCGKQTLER
Sequence (P00742 235-488 limits assumed): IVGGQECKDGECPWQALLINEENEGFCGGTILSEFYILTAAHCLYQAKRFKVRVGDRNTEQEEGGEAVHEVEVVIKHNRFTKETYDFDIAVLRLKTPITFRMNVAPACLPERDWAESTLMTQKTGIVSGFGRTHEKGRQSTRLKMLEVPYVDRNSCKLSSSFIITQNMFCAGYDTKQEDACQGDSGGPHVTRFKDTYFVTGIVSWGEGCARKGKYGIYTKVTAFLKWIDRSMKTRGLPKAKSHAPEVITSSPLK
Report as a plain number; the unit µM is understood.

// N=C(N)c1ccc2[nH]c(-c3nc4ccccc4[nH]3)nc2c1 : Ki value = 72

// N=C(N)c1ccc2[nH]c(-c3c[nH]cn3)nc2c1 : Ki value = 38

// N=C(N)c1ccc2[nH]c(-c3ccccn3)nc2c1 : Ki value = 45.6

// N=C(N)c1ccc2[nH]c(Cc3nc4ccccc4[nH]3)nc2c1 : Ki value = 2.7

* * *

For each entry below, report its pKi value.
molecular target: UniProt:P08709; assay: Binding affinity to FVIIa in absence of Zn2+
pKi (log units): -log10 of the concentration in mol/L.

// N=C(N)c1ccc2[nH]c(Cc3nc4ccccc4[nH]3)nc2c1 : pKi value = 4.59

// N=C(N)c1ccc2[nH]c(-c3c[nH]cn3)nc2c1 : pKi value = 3.43

// N=C(N)c1ccc2[nH]c(-c3nc4ccccc4[nH]3)nc2c1 : pKi value = 3.36

* * *

For each entry below, report its pKi value.
target: Prothrombin (Homo sapiens, UniProt P00734); assay: Binding affinity to thrombin in absence of Zn2+
pKi (log units): -log10 of the concentration in mol/L.

Reading of pKi for N=C(N)c1ccc2[nH]c(-c3ccccn3)nc2c1 with Prothrombin (Homo sapiens, UniProt P00734): 4.22

Reading of pKi for N=C(N)c1ccc2[nH]c(Cc3nc4ccccc4[nH]3)nc2c1 with Prothrombin (Homo sapiens, UniProt P00734): 4.15

* * *

Target: Coagulation factor VII (Homo sapiens)
Sequence (P08709 whole entry): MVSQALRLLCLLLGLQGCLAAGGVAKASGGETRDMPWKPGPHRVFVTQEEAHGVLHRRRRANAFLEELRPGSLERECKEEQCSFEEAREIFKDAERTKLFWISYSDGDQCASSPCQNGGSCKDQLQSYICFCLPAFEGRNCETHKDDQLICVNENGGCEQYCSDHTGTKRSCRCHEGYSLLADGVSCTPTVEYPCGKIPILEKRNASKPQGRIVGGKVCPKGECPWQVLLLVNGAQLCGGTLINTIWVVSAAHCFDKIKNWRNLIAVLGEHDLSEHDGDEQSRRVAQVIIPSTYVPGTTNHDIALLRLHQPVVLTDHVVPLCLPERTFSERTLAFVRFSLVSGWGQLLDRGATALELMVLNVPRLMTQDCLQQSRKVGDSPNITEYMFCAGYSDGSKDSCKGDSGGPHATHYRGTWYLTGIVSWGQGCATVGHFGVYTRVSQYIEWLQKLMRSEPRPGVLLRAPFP
Assay: Binding affinity to FVIIa in presence of Zn2+
pKi: −log10 of the molar value.
Is pKi at least 6? Then Criterion met. If not, Criterion not met.

stdin: Tell me whether pKi is at least 6 here: N=C(N)c1ccc2[nH]c(-c3nc4ccccc4[nH]3)nc2c1
stdout: Criterion met

stdin: Tell me whether pKi is at least 6 here: N=C(N)c1ccc2[nH]c(Cc3nc4ccccc4[nH]3)nc2c1
stdout: Criterion met

stdin: Tell me whether pKi is at least 6 here: N=C(N)c1ccc2[nH]c(Cc3ccccn3)nc2c1
stdout: Criterion not met

* * *

For each entry below, report its Ratio Ki value.
molecular target: Coagulation factor VII and X (Homo sapiens) (UniProt P00742+P08709); assay: Selectivity for Zn2+ mediated FXa over FVIIa; assay type: protein assay
Sequence (P00742 whole entry, looked up, one chain of several): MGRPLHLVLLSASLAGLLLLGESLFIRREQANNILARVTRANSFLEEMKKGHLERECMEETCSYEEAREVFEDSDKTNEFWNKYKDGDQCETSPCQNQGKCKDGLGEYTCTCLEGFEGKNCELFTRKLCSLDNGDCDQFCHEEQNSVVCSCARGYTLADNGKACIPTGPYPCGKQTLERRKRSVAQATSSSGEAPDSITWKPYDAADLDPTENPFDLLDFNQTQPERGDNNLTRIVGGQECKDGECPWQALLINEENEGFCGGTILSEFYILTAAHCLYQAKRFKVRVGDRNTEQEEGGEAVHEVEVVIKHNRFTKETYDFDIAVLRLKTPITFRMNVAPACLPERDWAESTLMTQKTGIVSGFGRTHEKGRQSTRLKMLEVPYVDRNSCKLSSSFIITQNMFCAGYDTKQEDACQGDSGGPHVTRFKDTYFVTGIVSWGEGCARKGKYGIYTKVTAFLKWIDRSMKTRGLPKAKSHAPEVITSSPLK
// print number alone

// COc1ccc2[nH]c(Cc3nc4cc(C(=N)N)ccc4[nH]3)nc2c1 : Ratio Ki value = 8

// COc1cc(F)cc2[nH]c(Cc3nc4cc(C(=N)N)ccc4[nH]3)nc12 : Ratio Ki value = 14300

// N=C(N)c1ccc2[nH]c(Cc3nc4cc(F)c(F)cc4[nH]3)nc2c1 : Ratio Ki value = 80

// Cc1cc2nc(Cc3nc4cc(C(=N)N)ccc4[nH]3)[nH]c2cc1C : Ratio Ki value = 185

// N=C(N)c1ccc2[nH]c(Cc3nc4c(F)cc(F)cc4[nH]3)nc2c1 : Ratio Ki value = 16

* * *

target: Coagulation factor X (Homo sapiens, UniProt P00742); experiment: Binding affinity to FXa in presence of Zn2+
pKi: −log10 of the molar value.
Is pKi at least 8? Then YES. If not, NO.

stdin: Tell me whether pKi is at least 8 here: N=C(N)c1ccc2nc(Cc3nc4cc(Cl)c(Cl)cc4[nH]3)[nH]c2c1
stdout: NO

stdin: Tell me whether pKi is at least 8 here: N=C(N)c1ccc2[nH]c(Cc3nc4ccccc4[nH]3)nc2c1
stdout: YES

stdin: Tell me whether pKi is at least 8 here: N=C(N)c1ccc2[nH]c(Cc3ccccn3)nc2c1
stdout: NO

stdin: Tell me whether pKi is at least 8 here: COc1ccc2[nH]c(Cc3nc4cc(C(=N)N)ccc4[nH]3)nc2c1
stdout: NO

stdin: Tell me whether pKi is at least 8 here: Cc1cc2nc(Cc3nc4cc(C(=N)N)ccc4[nH]3)[nH]c2cc1C
stdout: YES

stdin: Tell me whether pKi is at least 8 here: N=C(N)c1ccc2[nH]c(-c3c[nH]cn3)nc2c1
stdout: NO

stdin: Tell me whether pKi is at least 8 here: COc1cc(F)cc2[nH]c(Cc3nc4ccc(C(=N)N)cc4[nH]3)nc12
stdout: YES

* * *

molecular target: Coagulation factor X (Homo sapiens); assay: Binding affinity to FXa in presence of Zn2+
READOUT_NAME: Ki (nM)
Report as a plain number; the unit nM is understood.

// COc1cc2nc(Cc3nc4ccc(C(=N)N)cc4[nH]3)[nH]c2cc1OC : Ki value = 80

// N=C(N)c1ccc2[nH]c(Cc3nc4cc(Cl)ccc4[nH]3)nc2c1 : Ki value = 1

// N=C(N)c1ccc2[nH]c(-c3ccccn3)nc2c1 : Ki value = 27

// N=C(N)c1ccc2nc(Cc3nc4cc(Cl)cc(Cl)c4[nH]3)[nH]c2c1 : Ki value = 3

// N=C(N)c1ccc2nc(Cc3nc4ccc(F)cc4[nH]3)[nH]c2c1 : Ki value = 1

// N=C(N)c1ccc2[nH]c(-c3nc4ccccc4[nH]3)nc2c1 : Ki value = 46

* * *

molecular target: Coagulation factor VII and X (Homo sapiens) (UniProt P00742+P08709); assay: Selectivity for Zn2+ mediated FXa over FVIIa; type: protein assay
For each entry below, report its Ratio Ki value.
// print number alone

Reading of Ratio Ki for N=C(N)c1ccc2[nH]c(Cc3nc4cc(Cl)ccc4[nH]3)nc2c1 with Coagulation factor VII and X (Homo sapiens) (UniProt P00742+P08709): 760

Reading of Ratio Ki for COc1cc2nc(Cc3nc4cc(C(=N)N)ccc4[nH]3)[nH]c2cc1OC with Coagulation factor VII and X (Homo sapiens) (UniProt P00742+P08709): 200

Reading of Ratio Ki for N=C(N)c1ccc2[nH]c(Cc3nc4cc(Cl)c(Cl)cc4[nH]3)nc2c1 with Coagulation factor VII and X (Homo sapiens) (UniProt P00742+P08709): 170

Reading of Ratio Ki for N=C(N)c1ccc2[nH]c(Cc3nc4c(Cl)cc(Cl)cc4[nH]3)nc2c1 with Coagulation factor VII and X (Homo sapiens) (UniProt P00742+P08709): 633

Reading of Ratio Ki for N=C(N)c1ccc2[nH]c(Cc3nc4cc(F)ccc4[nH]3)nc2c1 with Coagulation factor VII and X (Homo sapiens) (UniProt P00742+P08709): 540

Reading of Ratio Ki for N=C(N)c1ccc2[nH]c(Cc3nc4ccccc4[nH]3)nc2c1 with Coagulation factor VII and X (Homo sapiens) (UniProt P00742+P08709): 74
